In this section, each of the substances is paired with its reported Yap1 mRNA, % UTC.
System: Yap1 mRNA
test name: Dose-dependent inhibition of human Yap1 in A-431 cells (Example 6, 5,000 cells per well, RTS4814)
Type: cell-based
experimental parameters: Table 55; 444 nM, free uptake, A-431 cells 5,000 cells per well, 48 hours, RTS4814
Strand notation (5' to 3'): a small letter for the sugar, then the base; units joined by * are phosphorothioate-linked, units joined directly phosphodiester-linked; [ ] holds rarer units or linkages, { } end groups; capitals alone tell only the bases. k = constrained ethyl (cEt); [5mC] = 5-methylcytosine; d = 2'-deoxy (DNA)
Reply numerically in % UTC, unit not repeated.

// below: answered substances
716503 (antisense kT*kT*kA*dT*dT*dA*dT*dG*dA*dG*dT*dG*dA*kT*k[5mC]*kA) [compound 716503]: 80
716548 (antisense kG*kA*kG*dT*dT*dT*d[5mC]*dA*dA*d[5mC]*dA*d[5mC]*dT*kG*kA*kT) [compound 716548]: 89

QUERY: Could you tell me which Yap1 mRNA, % UTC is on file for 715478 (kA*k[5mC]*k[5mC]*dA*dT*dT*dA*dT*dT*dA*d[5mC]*dT*d[5mC]*k[5mC]*kT*kG; antisense) [compound 715478] ?
RESULT: 56

* * *

Tested on: Yap1 mRNA
test name: Antisense inhibition of human Yap1 in A-431 cells by cEt gapmers, single dose (Example 2, RTS4814)
Format: cell-based
experimental parameters: Yap1 mRNA as percent of untreated control; A-431 cells; 3-10-3 cEt gapmers targeting SEQ ID NO.: 1, and 2; Table 30
Strand notation (5' to 3'): a small letter for the sugar, then the base; units joined by * are phosphorothioate-linked, units joined directly phosphodiester-linked; [ ] holds rarer units or linkages, { } end groups; capitals alone tell only the bases. k = constrained ethyl (cEt); [5mC] = 5-methylcytosine; d = 2'-deoxy (DNA)
In this section, each of the substances is paired with its reported YAP1 (% UTC).

1075184 (k[5mC]*kA*kA*dG*dA*dA*d[5mC]*dA*d[5mC]*dT*dG*dG*dT*kA*kT*kT; antisense) [compound 1075184]: 67 % UTC
1075952 (antisense k[5mC]*kT*kA*dT*dA*dT*dA*d[5mC]*d[5mC]*dT*dG*d[5mC]*dT*kT*k[5mC]*kT) [compound 1075952]: 41 % UTC
1075216 (kT*kA*kT*dT*dT*dT*dA*d[5mC]*dA*d[5mC]*dG*dA*dA*k[5mC]*kT*kA; antisense) [compound 1075216]: 55 % UTC
1074704 (antisense k[5mC]*kA*k[5mC]*dG*dG*dT*dG*dT*dA*dA*dG*dA*d[5mC]*kA*kA*kG) [compound 1074704]: 16 % UTC
1075600 (antisense k[5mC]*kA*k[5mC]*dT*dA*dT*dA*dA*dT*d[5mC]*dT*dG*dA*k[5mC]*k[5mC]*k[5mC]) [compound 1075600]: 68 % UTC

Query substance follows.
QUERY: Request: YAP1 (% UTC), test system Yap1 mRNA, entry 1074416 (k[5mC]*kT*kT*dT*dA*dG*dA*dG*d[5mC]*d[5mC]*dA*dA*d[5mC]*kT*kG*kT; antisense) [compound 1074416]
RESULT: 9 % UTC
